- Tested on: P. falciparum stage V gametocytes
- Set-up: BacTiter-Glo ATP luminescence viability of purified stage V gametocytes in 384-well plates, per cent inhibition versus DMSO
- appliedConditions: 48 h, 5 µM; inhibitor
Out of some 13,000 compounds screened, about 3,200 (25%) showed an effect of 50% or more. The list shows a part of the results.
measurementName: % Inhibition (%)
Give bare numbers, in %.

Example entries begin here.
CCOC(=O)[C@H](Cc1cc([N+](=O)[O-])c(Oc2ccc(OC)c(Cc3ccc(OC)c(C(C)C)c3)c2)c([N+](=O)[O-])c1)NC(=O)C(F)(F)F
36.25
O=C(/C=C/c1ccc(Cl)c(Cl)c1)NCCCCCN1CCC(NC(=O)Nc2cccc(Cl)c2Cl)CC1
-48.39
Cc1cc(C(=O)Nc2ccc3c(c2)CCN3C2CCN(Cc3ccc4nsnc4c3)C2)no1 (stereo not drawn)
-30.56
Cc1cc(OCC2CCN(c3ncc(C(=O)Nc4ccccc4)cc3Cl)CC2)ccc1F
-3.032
CCCCCCCN1CC[C@@H](CCCc2ccnc3ccc(OCCCCNC(N)=NO)cc23)[C@@H](CC)C1
107.7
Cc1cc(OCCCN2CCCC2)ccc1NC(=O)COc1ccc(Cl)cc1C(=O)c1cc(C#N)cc(C(F)(F)F)c1
58.86

Hi there! I need % Inhibition for each item below, if you can.
1. COc1ccc2nccc([C@@H](O)CN3CCC(NC(=O)c4cc5c(F)cc(F)cc5[nH]4)CC3)c2n1
2. Cc1cc(OCCCN2CCCCC2)ccc1NC(=O)COc1ccc(Cl)cc1C(=O)c1cc(C#N)cc(C(F)(F)F)c1
3. O=C(/C=C/c1ccc(Cl)c(Cl)c1)N1CCC(CN2CCC(c3cn(CC(=O)N4CCCCC4)c4ccccc34)CC2)CC1
4. CC(C)CCNc1nc(NCCCc2ccccc2)c2cc(O)ccc2n1
5. Cc1c(NC(=O)COc2ccc(Cl)cc2C(=O)c2cc(F)cc(C(F)(F)F)c2)ccc2ncsc12
6. CC[C@H]1CN(CCCC(=O)c2ccccc2)CC[C@H]1CCCc1ccnc2ccc(OC(=O)c3ccccc3)cc12

1. -17.57
2. 50
3. 103
4. 95.75
5. 4.382
6. 92.9

###

- System: P. falciparum stage V gametocytes
- Set-up: BacTiter-Glo ATP luminescence viability of purified stage V gametocytes in 384-well plates, per cent inhibition versus DMSO
- appliedConditions: 48 h, 5 µM; inhibitor
The campaign covered roughly 13,000 compounds. About 3,200 (25%) showed an effect of 50% or more. The list shows a part of the results.
% Inhibition vs 30%: at or above is true, below is false.

CC[C@H]1CN2CC[C@H]1C[C@H]2[C@H](O)c1ccnc2ccc(O)cc12 [TCMDC-131425]
false
CC[C@H]1CN2CC[C@@H]1C[C@H]2[C@H](O)c1cc(-c2ccc(F)cc2)nc2ccc(O)cc12 [TCMDC-141378]
true
O=C(Nc1cccc(CN2CCN(Cc3ccc(O)cc3)CC2)c1)c1cccc(C(F)(F)F)c1 [TCMDC-141885]
false
CC[C@H]1CN2CC[C@@H]1C[C@H]2[C@H](O)c1ccnc2ccc(Cl)cc12 [TCMDC-141353]
false
CC[C@H]1CN2CC[C@H]1C[C@@H]2[C@H](O)c1ccnc2ccc(O)cc12 [TCMDC-132025]
true

Record O=c1cc(NCCCNCc2cccc(SC(F)(F)F)c2)[nH]c2ccccc12 [TCMDC-139420] ; criterion: % Inhibition no lower than 30%. Met?
false

Can CC[C@H]1CN2CC[C@@H]1C[C@H]2[C@H](O)c1cc(-c2ccccc2)nc2ccc(O)cc12 [TCMDC-141380] be said to have % Inhibition at or above 30%?
true

Form field: % Inhibition at least 30%? Entry: O=C(Nc1ccc(Cl)c(Cl)c1)N1CCc2cc3nccc(N4CCN5CCC[C@H]5C4)c3cc21 [TCMDC-140055]
true
